Sourced from patent US9586951B2

Target: ATM (Homo sapiens, UniProt Q13315)
Construct: detecting phosphorylation of Chk2 in a human non-small cell lung cancer cell line NCI-H460 (ATCC company); host or cells: NCI-H460 human non-small cell lung cancer cells
Sequence (Q13315 whole entry): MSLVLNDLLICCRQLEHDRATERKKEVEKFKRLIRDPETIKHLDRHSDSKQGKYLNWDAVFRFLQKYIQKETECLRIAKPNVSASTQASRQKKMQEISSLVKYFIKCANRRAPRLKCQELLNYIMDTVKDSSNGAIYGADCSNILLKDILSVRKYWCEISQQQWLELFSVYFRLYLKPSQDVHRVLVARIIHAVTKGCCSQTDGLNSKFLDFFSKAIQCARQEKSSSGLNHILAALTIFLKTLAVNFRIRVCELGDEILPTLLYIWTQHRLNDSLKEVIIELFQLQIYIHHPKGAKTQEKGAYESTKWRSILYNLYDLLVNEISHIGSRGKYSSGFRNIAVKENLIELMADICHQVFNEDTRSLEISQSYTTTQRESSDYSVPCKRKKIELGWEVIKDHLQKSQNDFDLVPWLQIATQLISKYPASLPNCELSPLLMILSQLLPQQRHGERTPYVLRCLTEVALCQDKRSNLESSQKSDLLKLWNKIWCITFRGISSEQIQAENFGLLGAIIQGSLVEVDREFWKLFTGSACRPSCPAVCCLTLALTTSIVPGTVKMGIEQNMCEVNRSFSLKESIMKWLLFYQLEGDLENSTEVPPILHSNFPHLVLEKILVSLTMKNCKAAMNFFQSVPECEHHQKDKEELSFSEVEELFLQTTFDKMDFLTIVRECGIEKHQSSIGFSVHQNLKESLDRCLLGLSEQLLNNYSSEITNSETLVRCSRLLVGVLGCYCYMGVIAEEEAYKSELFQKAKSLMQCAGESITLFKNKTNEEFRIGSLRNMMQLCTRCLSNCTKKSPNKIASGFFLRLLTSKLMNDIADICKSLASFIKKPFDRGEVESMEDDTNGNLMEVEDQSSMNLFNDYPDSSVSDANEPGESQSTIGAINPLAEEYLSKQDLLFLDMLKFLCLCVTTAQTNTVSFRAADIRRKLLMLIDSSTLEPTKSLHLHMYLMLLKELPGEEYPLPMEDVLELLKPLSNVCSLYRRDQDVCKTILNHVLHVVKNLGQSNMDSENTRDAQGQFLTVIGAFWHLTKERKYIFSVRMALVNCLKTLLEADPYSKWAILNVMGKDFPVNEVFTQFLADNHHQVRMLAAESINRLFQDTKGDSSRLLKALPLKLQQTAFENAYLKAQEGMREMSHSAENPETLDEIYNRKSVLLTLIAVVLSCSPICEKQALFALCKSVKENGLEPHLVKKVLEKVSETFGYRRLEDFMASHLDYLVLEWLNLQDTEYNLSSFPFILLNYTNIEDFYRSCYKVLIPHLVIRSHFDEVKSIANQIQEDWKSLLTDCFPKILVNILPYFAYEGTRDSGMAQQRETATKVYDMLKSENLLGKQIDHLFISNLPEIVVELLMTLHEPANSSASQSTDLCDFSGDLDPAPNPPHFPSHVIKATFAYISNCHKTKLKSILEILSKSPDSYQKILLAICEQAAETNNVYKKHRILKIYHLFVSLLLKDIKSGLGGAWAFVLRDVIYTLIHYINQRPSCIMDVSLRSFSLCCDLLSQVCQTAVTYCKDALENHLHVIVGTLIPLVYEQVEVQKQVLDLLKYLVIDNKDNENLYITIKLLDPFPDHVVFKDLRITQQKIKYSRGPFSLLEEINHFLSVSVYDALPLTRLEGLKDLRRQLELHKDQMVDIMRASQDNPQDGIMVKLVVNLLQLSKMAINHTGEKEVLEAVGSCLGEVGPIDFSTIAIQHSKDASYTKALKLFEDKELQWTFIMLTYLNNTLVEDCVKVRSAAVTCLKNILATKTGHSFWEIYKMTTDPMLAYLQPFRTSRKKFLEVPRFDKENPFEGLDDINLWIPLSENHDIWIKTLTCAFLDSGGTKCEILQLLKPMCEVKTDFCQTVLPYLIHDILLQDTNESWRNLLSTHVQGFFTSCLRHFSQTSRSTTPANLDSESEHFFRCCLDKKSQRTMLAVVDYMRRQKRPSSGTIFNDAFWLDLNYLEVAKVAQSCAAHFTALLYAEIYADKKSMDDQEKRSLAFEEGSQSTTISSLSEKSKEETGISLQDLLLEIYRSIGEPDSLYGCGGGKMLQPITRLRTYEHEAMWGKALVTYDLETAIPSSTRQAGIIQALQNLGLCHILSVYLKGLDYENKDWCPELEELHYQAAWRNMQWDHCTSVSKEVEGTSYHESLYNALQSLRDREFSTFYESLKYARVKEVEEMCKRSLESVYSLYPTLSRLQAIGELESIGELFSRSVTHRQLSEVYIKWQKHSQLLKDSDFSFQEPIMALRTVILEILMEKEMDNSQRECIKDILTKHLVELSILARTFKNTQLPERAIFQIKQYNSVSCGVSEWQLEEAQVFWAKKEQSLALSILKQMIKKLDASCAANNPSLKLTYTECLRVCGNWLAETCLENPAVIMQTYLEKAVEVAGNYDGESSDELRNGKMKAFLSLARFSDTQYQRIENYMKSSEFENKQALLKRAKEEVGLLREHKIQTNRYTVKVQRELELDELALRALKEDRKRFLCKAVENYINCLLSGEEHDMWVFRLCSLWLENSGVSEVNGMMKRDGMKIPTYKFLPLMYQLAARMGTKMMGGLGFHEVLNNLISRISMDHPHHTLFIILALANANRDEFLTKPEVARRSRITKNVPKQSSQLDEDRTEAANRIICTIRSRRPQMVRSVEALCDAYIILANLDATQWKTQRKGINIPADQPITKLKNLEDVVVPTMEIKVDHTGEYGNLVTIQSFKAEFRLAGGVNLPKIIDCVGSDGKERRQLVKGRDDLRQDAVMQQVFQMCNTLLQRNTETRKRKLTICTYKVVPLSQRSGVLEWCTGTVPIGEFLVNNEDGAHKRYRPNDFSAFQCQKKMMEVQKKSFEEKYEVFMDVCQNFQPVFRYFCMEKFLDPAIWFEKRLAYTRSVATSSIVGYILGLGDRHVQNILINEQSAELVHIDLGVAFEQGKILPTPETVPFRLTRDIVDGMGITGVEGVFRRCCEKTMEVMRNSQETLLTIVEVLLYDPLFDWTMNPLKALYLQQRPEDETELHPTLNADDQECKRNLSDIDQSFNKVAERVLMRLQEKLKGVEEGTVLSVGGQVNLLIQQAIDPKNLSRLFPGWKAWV
Assay: ATM inhibition test (phosphorylation of Chk2 generated by ionizing radiation, AlphaScreen SureFire)
Format: cell-based
Conditions: phosphorylated Chk2 in NCI-H460 cells, ionizing radiation 8Gy, 1 hour after test compound treatment; read-out: ATM inhibitory activity
Reported IC50 values follow for various compounds

INSERT INTO results (compound, endpoint_name, readout_value) VALUES
  ('Cc1ccc(C(Nc2ccc3c(c2)Sc2cccc(-c4cc(N5CCOCC5)cc(=O)[nH]4)c2S3)C2CC(N(C)C)C2)nc1 (single isomer, unassigned) [Example 1-50-9]', 'IC50', '< 100 nM'),
  ('COCCOCC(Nc1ccc2c(c1)Sc1cccc(-c3cc(N4CCOCC4)cc(=O)[nH]3)c1S2)c1ccc(C)cn1 (stereo not drawn) [Example 1-12-102]', 'IC50', '< 100 nM'),
  ('CC(Nc1ccc2c(c1)Cc1cccc(-c3cc(N4CCOCC4)cc(=O)[nH]3)c1O2)c1cnccn1 (stereo not drawn) [Example 2-14-77]', 'IC50', '100 to 500 nM'),
  ('O=c1cc(N2CCOCC2)cc(-c2cccc3c2Oc2ccc(NCc4cccc(Cl)n4)cc2C3)[nH]1 [Example 2-14-2]', 'IC50', '100 to 500 nM');

Please supply the value of reported IC50 for the item COc1ccnc(CNc2ccc3c(c2)Sc2cccc(-c4cc(N5CCOCC5)cc(=O)[nH]4)c2O3)c1 [Example 4-8-8]
< 100 nM

Output IC50 of COc1cncc(C(C)Nc2ccc3c(c2)Sc2cccc(-c4cc(N5CCOCC5)cc(=O)[nH]4)c2S3)c1 (single isomer, unassigned) [Example 1-12-145-2]
< 100 nM
